Provide the reported protein stability index of each item.
B1: TRIM35 (parent)
chain: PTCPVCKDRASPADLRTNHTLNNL

- Variants of: B1
- test: protein stability index of a GFP-peptide fusion (GPS, HEK-293T) (PSI 1-6); higher = more stable;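 note: lentivirally expressed fusions sorted by FACS into six bins by GFP to DsRed ratio, PSI derived from sequencing read proportions per bin multiplied by bin number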
- assay-conditions: c terminus: a fixed tail appended
Give the figure by itself; no unit, no explanation.

Provide protein stability index value for the following variant: V5E
3.65

Provide protein stability index value for the following variant: N23Q
3.1

Provide protein stability index value for the following variant: T17D
3.36

Provide protein stability index value for the following variant: C6Y
4.1

Provide protein stability index value for the following variant: N18F
2.53

Provide protein stability index value for the following variant: L21C
4.64

Provide protein stability index value for the following variant: H19P
3.19

Provide protein stability index value for the following variant: A13T
2.75

Provide protein stability index value for the following variant: C6N
4.2

Provide protein stability index value for the following variant: N18S
2.81

Provide protein stability index value for the following variant: N18G
3.03

Reference source: the supplement of paper PMC10567573
